- assay_target: HER2(h) (Homo sapiens, UniProt P04626)
- Sequence (P04626 23-1255): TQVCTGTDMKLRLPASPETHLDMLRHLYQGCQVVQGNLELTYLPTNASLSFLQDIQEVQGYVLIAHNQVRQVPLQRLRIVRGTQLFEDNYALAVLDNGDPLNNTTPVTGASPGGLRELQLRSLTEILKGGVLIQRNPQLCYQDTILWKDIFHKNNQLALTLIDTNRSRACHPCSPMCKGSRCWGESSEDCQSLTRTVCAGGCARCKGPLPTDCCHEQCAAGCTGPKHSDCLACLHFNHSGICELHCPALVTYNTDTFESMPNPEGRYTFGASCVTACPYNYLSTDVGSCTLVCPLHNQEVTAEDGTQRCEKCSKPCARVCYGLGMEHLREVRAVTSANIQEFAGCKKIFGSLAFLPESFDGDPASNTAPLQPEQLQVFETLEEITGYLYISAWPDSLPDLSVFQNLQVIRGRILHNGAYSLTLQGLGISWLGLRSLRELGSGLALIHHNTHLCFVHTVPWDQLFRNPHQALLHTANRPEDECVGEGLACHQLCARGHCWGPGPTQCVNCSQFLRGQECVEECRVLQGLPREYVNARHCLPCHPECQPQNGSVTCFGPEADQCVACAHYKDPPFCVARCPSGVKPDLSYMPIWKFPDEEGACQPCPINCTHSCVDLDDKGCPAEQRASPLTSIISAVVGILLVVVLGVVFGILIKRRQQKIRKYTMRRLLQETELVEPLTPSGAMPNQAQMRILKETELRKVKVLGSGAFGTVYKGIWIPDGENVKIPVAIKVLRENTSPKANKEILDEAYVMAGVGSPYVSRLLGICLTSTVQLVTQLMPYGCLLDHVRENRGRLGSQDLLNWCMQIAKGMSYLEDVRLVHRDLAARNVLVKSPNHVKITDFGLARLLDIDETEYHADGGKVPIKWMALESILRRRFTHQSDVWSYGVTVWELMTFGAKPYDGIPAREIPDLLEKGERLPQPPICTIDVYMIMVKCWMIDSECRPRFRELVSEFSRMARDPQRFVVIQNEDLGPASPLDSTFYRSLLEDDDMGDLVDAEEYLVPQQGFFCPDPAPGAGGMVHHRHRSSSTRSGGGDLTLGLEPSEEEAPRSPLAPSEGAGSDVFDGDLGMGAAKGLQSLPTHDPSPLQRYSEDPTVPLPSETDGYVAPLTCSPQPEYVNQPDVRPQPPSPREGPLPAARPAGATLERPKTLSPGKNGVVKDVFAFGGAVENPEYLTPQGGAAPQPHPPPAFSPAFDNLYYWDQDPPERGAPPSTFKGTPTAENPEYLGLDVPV
quantity: IC50 (nM)
Give just the numeric value; nM need not be written.

Problem: Return reported IC50; argument: COc1cc(O[C@H]2CCN(C)CC2(F)F)c2c(Nc3ccc(Oc4ccn5ncnc5c4)c(C)c3)ncnc2c1 [DZD1516]
Solution: 16

// data source = paper PMC10327353
